- System: HCV replicon cells (2209-23), genotype 1b replicon
- Method Summary: HCV replicon assay (Renilla luciferase reporter)
- Assay type: cell-based, HCV genotype 1b
- Assay Context: Hepatitis C virus, 72 h; 2209-23 cells, three days incubation
Readout: IC50

Example molecules with recorded IC50:
Smiles Str | IC50
COc1c(NC(=O)c2ccc(NS(C)(=O)=O)cc2)cc(-c2ncc[nH]c2=O)cc1C(C)(C)C | 347 nM
COC(=O)c1cc(NS(C)(=O)=O)ccc1/C=C/c1cc(-c2cnc(OCc3ccccc3)[nH]c2=O)cc(C(C)(C)C)c1OC | 40 nM
CC1(C)COc2c(-c3ccn[nH]c3=O)cc(/C=C/c3ccc(NS(C)(=O)=O)cc3)cc21 | 113 nM
COc1c(/C=C/c2ccc(NS(C)(=O)=O)cc2C(=O)O)cc(-c2ccn[nH]c2=O)cc1C(C)(C)C | 71 nM

Inquiry: Look up IC50 for this molecule: COc1c(/C=C/c2ccc(NS(C)(=O)=O)cc2)cc(-c2ccn[nH]c2=O)cc1C(C)(C)C
Reply text: 1 nM

Inquiry: Look up IC50 for this molecule: COc1c(CCc2ccc(NS(C)(=O)=O)cc2)cc(-c2ncc[nH]c2=O)cc1C(C)(C)C
Reply text: 112 nM

* * *

- Tested Target: HCV polymerase (NS5B570n-Con1) (Hepatitis C virus genotype 1b)
- Construct: a 21 amino acid C-terminal deletion of full-length HCV polymerase; made in house; host or cells: E. coli BL21(DE3) pLysS, plasmid pET17b
- Method Summary: HCV NS5B RNA polymerase activity
- Type: biochemical, HCV Con1 strain
- Assay Context: NS5B pol inhibition IC50, cell values marked ^2; as in Example 32 except RNA template concentration 3 nM (footnote 3)
The entries below come with measured IC50 values attached.
The answer is to be given in nM; state only the numeric part.

Example compounds with recorded IC50:
Smiles Str | Measurement Units | IC50
COC(=O)c1cc(NS(C)(=O)=O)ccc1/C=C/c1cc(-c2cnc(OCc3ccccc3)[nH]c2=O)cc(C(C)(C)C)c1OC | nM | 11
COc1c(/C=C/c2ccc(NS(C)(=O)=O)cc2)cc(-c2cnc[nH]c2=O)cc1C(C)(C)C | nM | 2
COc1c(NC(=O)c2ccc(NCC(F)(F)F)cc2)cc(-c2ccn[nH]c2=O)cc1C(C)(C)C | nM | 3

Inquiry: Look up IC50 for this compound: CC1(C)COc2c(-c3ccn[nH]c3=O)cc(/C=C/c3ccc(NS(C)(=O)=O)cc3)cc21
Reply text: 2

Inquiry: Look up IC50 for this compound: CC1(C)COc2c(-c3ncc[nH]c3=O)cc(/C=C/c3ccc(NS(C)(=O)=O)cc3)cc21
Reply text: 19

* * *

- Tested Target: HCV polymerase (NS5B570n-Con1) (Hepatitis C virus genotype 1b, UniProt Q9WMX2)
- Construct: a 21 amino acid C-terminal deletion of full-length HCV polymerase; made in house; host or cells: E. coli BL21(DE3) pLysS, plasmid pET17b
- Method Summary: HCV NS5B RNA polymerase activity
- Type: biochemical, HCV Con1 strain
- Assay Context: NS5B pol inhibition IC50, as in Example 32 (20 nM RNA template)
pIC50: −log10 of the molar value.
Give YES when the value for pIC50 is at least 8. Give NO when it is less.

Solved cases below.
Smiles Str | Class Assignment
COCc1cc(NS(C)(=O)=O)ccc1/C=C/c1cc(-c2c[nH]c(=O)[nH]c2=O)cc(C(C)(C)C)c1OC | YES
COc1c(/C=C/c2ccc(NS(C)(=O)=O)cc2)cc(-c2c[nH]c(=O)[nH]c2=O)cc1C(F)(F)F | YES
COc1ccc(-c2ccn[nH]c2=O)cc1C(C)(C)C | NO

Proceed to the following item.
Inquiry: For this compound, is measured pIC50 8 or higher? COc1c(NC(=O)c2ccc(NCC(F)(F)F)cc2)cc(-c2ccn[nH]c2=O)cc1C(C)(C)C
Reply text: YES

* * *

The entries below come with measured log10 IC50 values attached.
- Tested Target: HCV polymerase (NS5B570n-Con1) (Hepatitis C virus genotype 1b, UniProt Q9WMX2)
- Construct: a 21 amino acid C-terminal deletion of full-length HCV polymerase; made in house; host or cells: E. coli BL21(DE3) pLysS, plasmid pET17b
- Method Summary: HCV NS5B RNA polymerase activity
- Assay type: biochemical, HCV Con1 strain
- Assay Context: NS5B pol inhibition IC50, as in Example 32 (20 nM RNA template)
Hi team, quick reminder: these entries are log10 of IC50 (nM).

Example compounds with recorded log10 IC50:
Compound | log10 IC50
COc1c(/C=C/c2ccc(NS(C)(=O)=O)cc2)cc(-c2c[nH]c(=O)[nH]c2=O)c2c1C(C)(C)CO2 [Compound I-28] | -0.22
COc1c(CCc2ccc(NS(C)(=O)=O)cc2)cc(-c2ncc[nH]c2=O)c(F)c1C(C)(C)C [Compound I-3] | 1.61
COc1c(/C=C/c2ccc(NS(C)(=O)=O)cc2)cc(-c2cc(C)n[nH]c2=O)cc1C(C)(C)C [Compound I-17] | 1.00
COc1c(/C=C/c2ccc(NS(C)(=O)=O)cc2)cc(-c2cnc(Cl)[nH]c2=O)cc1C(C)(C)C [Compound I-32] | 0.70
COc1c(/C=C/c2ccc(NS(C)(=O)=O)cc2)cc(-c2cnc(N(C)C)[nH]c2=O)cc1C(C)(C)C [Compound I-33] | 0.41
COc1c(/C=C/c2ccc(NS(C)(=O)=O)cc2)cc(-c2cn(C)c(=O)[nH]c2=O)cc1C(C)(C)C [Compound I-8] | 0.11

Inquiry: Look up log10 IC50 for this compound: COc1c(NC(=O)c2ccc(N)cc2)cc(-c2ccn[nH]c2=O)cc1C(C)(C)C [Compound I-19]
Reply text: 1.18

* * *

Readout: melting point

Example molecules with recorded melting point:
Smiles Str | Measured
COCc1cc(NS(C)(=O)=O)ccc1/C=C/c1cc(-c2c[nH]c(=O)[nH]c2=O)cc(C(C)(C)C)c1OC | 172 to 175 °C
CC1(C)COc2c(-c3ncc[nH]c3=O)cc(/C=C/c3ccc(NS(C)(=O)=O)cc3)cc21 | 302 to 304 °C
COc1c(CCc2ccc(NC(C)=O)cc2)cc(-c2ncc[nH]c2=O)cc1C(C)(C)C | 181 to 185 °C
COc1c(/C=C/c2ccc(NS(C)(=O)=O)cc2)cc(-c2c[nH]c(=O)[nH]c2=O)cc1C(F)(F)F | 255 to 258 °C

Inquiry: Look up melting point for this molecule: COc1c(CCc2ccc(NS(C)(=O)=O)cc2)cc(-c2ncc[nH]c2=O)c(F)c1C(C)(C)C
Reply text: 130 to 132 °C

Inquiry: Look up melting point for this molecule: COc1c(/C=C/c2ccc(NS(C)(=O)=O)cc2)cc(-c2cn(C)c(=O)[nH]c2=O)cc1C(C)(C)C
Reply text: > 300 °C

Inquiry: Look up melting point for this molecule: COc1c(/C=C/c2ccc(NS(C)(=O)=O)cc2)cc(-c2c[nH]c(=O)[nH]c2=O)cc1C1(C(F)F)CC1
Reply text: 292 to 295 °C

Inquiry: Look up melting point for this molecule: COc1c(/C=C/c2ccc(NS(C)(=O)=O)cc2)cc(-c2cc(C)n[nH]c2=O)cc1C(C)(C)C
Reply text: 292 to 294 °C

Inquiry: Look up melting point for this molecule: COc1ccc(-c2ccn[nH]c2=O)cc1C(C)(C)C
Reply text: 202 to 204 °C

Inquiry: Look up melting point for this molecule: COc1c(/C=C/c2ccc(NS(C)(=O)=O)cc2)cc(-c2ccn[nH]c2=O)cc1C1CC1
Reply text: 269 to 271 °C

* * *

The entries below come with measured IC50 values attached.
- Tested Target: HCV polymerase (NS5B570n-Con1) (Hepatitis C virus genotype 1b)
- Construct: a 21 amino acid C-terminal deletion of full-length HCV polymerase; made in house; host or cells: E. coli BL21(DE3) pLysS, plasmid pET17b
- Method Summary: HCV NS5B RNA polymerase activity
- Assay type: biochemical, HCV Con1 strain
- Assay Context: NS5B pol inhibition IC50, as in Example 32 (20 nM RNA template)
The answer is to be given in nM; state only the numeric part.

Example molecules with recorded IC50:
Molecule | Readout | Measured
CC(C)(C)c1cc(/C=C/c2ccc(NS(C)(=O)=O)cc2)cc(-c2ccn[nH]c2=O)c1 [Compound I-15] | IC50 | 3
COc1c(/C=C/c2ccc(NS(C)(=O)=O)cc2)cc(-c2ccn[nH]c2=O)cc1C1CC1 [Compound I-26] | IC50 | 2.1
COc1c(NC(=O)c2ccc(NS(C)(=O)=O)cc2)cc(-c2ncc[nH]c2=O)cc1C(C)(C)C [Compound I-4] | IC50 | 6
COc1c(/C=C/c2ccc(NS(C)(=O)=O)cc2)cc(-c2ncc[nH]c2=O)cc1C1(C(F)F)CC1 [Compound I-31] | IC50 | 0.3
COc1c(/C=C/c2ccc(NS(C)(=O)=O)cc2)cc(-c2cnc(C)[nH]c2=O)cc1C(C)(C)C [Compound I-43] | IC50 | 1.1

Inquiry: Look up IC50 for this molecule: COc1c(/C=C/c2ccc(NS(C)(=O)=O)cc2)cc(-c2ncc[nH]c2=O)cc1C(C)(C)C [Compound I-11]
Reply text: 4

Inquiry: Look up IC50 for this molecule: CC(C)(C)c1cc(CCc2ccc(NS(C)(=O)=O)cc2)c(O)c(-c2ncc[nH]c2=O)c1 [Compound I-5]
Reply text: 92
